target: HLA-A*0201 (Homo sapiens, UniProt P04439, D140Y/D185E/D98H/E176V/E277Q/G131W/G231S/I119V/I121R/I166T/I218V/L300P/L318F/N151K/N90K/P208A/P217A/Q86G/Q94H/R138H/R169H/T345S); construct: Human T2 cells (purchased from the American Type Culture Collection, ATCC) (ATCC No. CRL-1992) expressing the HLA-A*0201 gene; endogenous in cells; host or cells: human T2 cells (ATCC CRL-1992); assay: T2 cell-stabilization assay (T2-binding); conditions: T2 cells 5×10^5, peptide 50 µg/mL + β2-microglobulin 5 µg/mL, 28°C 16–18 h, then brefeldin A 10 µg/mL 37°C 3 h; FITC anti-HLA-A2, flow cytometry; MFI relative to negative control HCV C55-74 (set as 1)
# cutoff 1 applies to T2-binding Ratio of MFI; >= gives 1, < gives -1

[[record]]
substance = "24: HLA-A*0201-restricted 9-mer synthetic peptide from F protein of RSV-B1 strain (LLSLIAVGL) [compound 24]"
group_label = 1


Now consider the entry below.
Inquiry: Please indicate if the recorded T2-binding Ratio of MFI for 15: HLA-A*0201-restricted 9-mer synthetic peptide from F protein of RSV-B1 strain (KLMSNNVQI) [compound 15] meets or exceeds 1.
Reply text: 1

###

system: splenocytes from HLA-A*0201 transgenic C57BL/6 mice; experiment: IL-2 ELISPOT of splenocytes restimulated with peptide; format: cell-based, mouse; conditions: splenocytes of rAd-F0- or RSV B1-primed and boosted HLA-Tg B6 mice; high = over 100 spots, moderate = over 50 spots
Parameter measured: IL-2 level in restimulated splenocytes (ELISPOT, text grading)

[[record]]
substance = "7: HLA-A*0201-restricted 9-mer synthetic peptide from F protein of RSV-B1 strain (HLEGEVNKI) [compound 7]"
result = "over 50 spots"

[[record]]
substance = "22: HLA-A*0201-restricted 9-mer synthetic peptide from F protein of RSV-B1 strain (VIIVILLSL) [compound 22]"
result = "over 50 spots"

[[record]]
substance = "5: HLA-A*0201-restricted 9-mer synthetic peptide from F protein of RSV-B1 strain (FMNYTLNNT) [compound 5]"
result = "over 50 spots"


###

tested on: splenocytes from HLA-A*0201 transgenic C57BL/6 mice; experiment: IL-2 ELISPOT of splenocytes restimulated with peptide; type: cell-based, mouse; settings: splenocytes of rAd-F0- or RSV B1-primed and boosted HLA-Tg B6 mice; high = over 100 spots, moderate = over 50 spots
Parameter measured: IL-2 level in restimulated splenocytes (ELISPOT, text grading)

Example entries begin here.
[[record]]
substance = "11: HLA-A*0201-restricted 9-mer synthetic peptide from F protein of RSV-B1 strain (SLSNGVSVL) [compound 11]"
result = "over 50 spots"

[[record]]
substance = "15: HLA-A*0201-restricted 9-mer synthetic peptide from F protein of RSV-B1 strain (KLMSNNVQI) [compound 15]"
result = "over 50 spots"

[[record]]
substance = "TLLLWVLLL [peptide 1, HLA-A*0201-restricted 9-mer synthetic peptide from F protein of RSV-B1 strain]"
result = "over 50 spots"

[[record]]
substance = "16: HLA-A*0201-restricted 9-mer synthetic peptide from F protein of RSV-B1 strain (LMSNNVQIV) [compound 16]"
result = "over 50 spots"

[[record]]
substance = "4: HLA-A*0201-restricted 9-mer synthetic peptide from F protein of RSV-B1 strain (ELDKYKNAV) [compound 4]"
result = "over 50 spots"


Could you now consider this next substance?
Inquiry: Sample 19: HLA-A*0201-restricted 9-mer synthetic peptide from F protein of RSV-B1 strain (KINQSLAFI) [compound 19] — what was its IL-2 level in restimulated splenocytes (ELISPOT, text grading)?
Reply text: over 50 spots

###

target: HLA-A*0201 (Homo sapiens, UniProt P04439, D140Y/D185E/D98H/E176V/E277Q/G131W/G231S/I119V/I121R/I166T/I218V/L300P/L318F/N151K/N90K/P208A/P217A/Q86G/Q94H/R138H/R169H/T345S); construct: Human T2 cells (purchased from the American Type Culture Collection, ATCC) (ATCC No. CRL-1992) expressing the HLA-A*0201 gene; endogenous in cells; host or cells: human T2 cells (ATCC CRL-1992); experiment: T2 cell-stabilization assay (T2-binding); conditions: T2 cells 5×10^5, peptide 50 µg/mL + β2-microglobulin 5 µg/mL, 28°C 16–18 h, then brefeldin A 10 µg/mL 37°C 3 h; FITC anti-HLA-A2, flow cytometry; MFI relative to negative control HCV C55-74 (set as 1)
# Lookup of reported T2-binding Ratio of MFI keyed by entry
Give the figure only, with no unit attached.

Example entries begin here.
[[record]]
substance = "22: HLA-A*0201-restricted 9-mer synthetic peptide from F protein of RSV-B1 strain (VIIVILLSL) [compound 22]"
parameter_measured = "T2-binding Ratio of MFI"
numeric_value = 0.97

[[record]]
substance = "RPQPRGRRQPIPKARQPEGR [HCV C55-74, reference compound]"
parameter_measured = "T2-binding Ratio of MFI"
numeric_value = 1

[[record]]
substance = "6: HLA-A*0201-restricted 9-mer synthetic peptide from F protein of RSV-B1 strain (FLLGVGSAI) [compound 6]"
parameter_measured = "T2-binding Ratio of MFI"
numeric_value = 1.14


Could you now consider this next substance?
Inquiry: Sample 10: HLA-A*0201-restricted 9-mer synthetic peptide from F protein of RSV-B1 strain (STNKAVVSL) [compound 10] — what was its T2-binding Ratio of MFI?
Reply text: 0.91

Where do these numbers come from? They come from paper PMC3183052.
